Give measured protein stability index for each item. Keep answers brief.
B1: MLL5 (parent)
chain: HDDGYMICCDKCSVWQHIDCMGID

# Variants of: B1
# ASSAY_COMMENT: protein stability index of a GFP-peptide fusion (GPS, HEK-293T) (PSI 1-6); higher = more stable;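 further: lentivirally expressed fusions sorted by FACS into six bins by GFP to DsRed ratio, PSI derived from sequencing read proportions per bin multiplied by bin number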
# EXPERIMENTAL_CONTEXT: c terminus: a fixed tail appended
Lab note: write the figure by itself, no unit.

Value of protein stability index reported for the variant HDDGYMICCDKCPVWQHIDCMGID [S13P] is 2.7

Per the records, this variant ( HDDGYMICCDKVSVWQHIDCMGID [C12V] ) has protein stability index equal to 1.93

Data point: HDDGYMICCDKCSVWQHIDDMGID [C20D] ; protein stability index = 2.58

The variant listed as HDDGYKICCDKCSVWQHIDCMGID [M6K] has a reported protein stability index of 2.43

Per the records, this variant ( HDDDYMICCDKCSVWQHIDCMGID [G4D] ) has protein stability index equal to 2.61

The variant listed as HDDGYMICCDKCSVHQHIDCMGID [W15H] shows protein stability index equal to 3.93

variant HDDGYMICCDECSVWQHIDCMGID [K11E] , protein stability index observed: 2.39

Notebook: HDDGYMICCDNCSVWQHIDCMGID [K11N] , protein stability index read as 2.31

Reported protein stability index ( HDPGYMICCDKCSVWQHIDCMGID [D3P] ) = 2.65

Consider HDDGYMICCDKCSVWQHIDCMGYD [I23Y] . Its measured protein stability index is 2.34

For record HDDGYMICCDKCSVWQHIWCMGID [D19W] the listed protein stability index is 1.98

Item: HDDGYMICCDKCSVWQHIDCMGIC [D24C] | protein stability index: 2.68

// sample HDDGYMICCDKCSVWQHIDCPGID [M21P] , its protein stability index was 3.14

Form field protein stability index, entry HDDGYMACCDKCSVWQHIDCMGID [I7A] : 3.2

protein stability index reported for this variant HDDGYMICCDKCSVWQHIDQMGID [C20Q] : 2.02

Lab note: measured protein stability index of HDDGYMICCDKCSEWQHIDCMGID [V14E] was 3.73

Note to self: protein stability index recorded for HDDGYMICCDKCSVWQHIQCMGID [D19Q] was 2.62

// protein stability index value for HDDGYMICCDKCSVWQHIDCEGID [M21E] : 2.83

// protein stability index value for HNDGYMICCDKCSVWQHIDCMGID [D2N] : 1.71

Entry HDDGYMICCDKCSVWQNIDCMGID [H17N] ; protein stability index = 2.32

Briefly, protein stability index measured for HDDGYNICCDKCSVWQHIDCMGID [M6N] : 3.14

The value of protein stability index measured for the variant HDDGYMICCDKTSVWQHIDCMGID [C12T] turned out to be 2.74

Taken from the supplement of paper PMC10567573.
